TEST_DESCRIPTION: chemical genetic growth profiling, strain panel (AID 1159580);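 further: tested at 20 µM; growth read once vehicle control cultures reached saturation at 30 °C; 1 = growth at the plate median or of vehicle wells; lower values mean less growth of the strain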
CONDITION_DESCRIPTION: S. cerevisiae deletion strains, growth OD, locus YJL095W, strain BCK1 (second series)
Out of some 5,500 compounds screened, about 2,000 (36%) were called active. Not shown: some 18% with an inconclusive outcome. No stated cut-off is given here; in the data, active means normalized growth mostly below about 0.91 (no sharp cut-off); inconclusive means no clear call, values can overlap the other calls; inactive means mostly above about 0.92. The list shows a part of the results.
Labels: 1 = active, -1 = inactive

[[record]]
molecule = "Cc1cc(O)c(C)c(O)c1C(=O)O"
class_name = -1

[[record]]
molecule = "COc1cc2c(cc1OC)Cc1cc(OC)c(OC)cc1Cc1cc(OC)c(OC)cc1C2"
class_name = -1

[[record]]
molecule = "CCOC(=O)c1c(C)c(Cl)c(O)c(Cl)c1O"
class_name = 1

[[record]]
molecule = "CCOC(=O)c1c(C)cc(O)c(C=O)c1O"
class_name = 1

[[record]]
molecule = "CCC(=O)O[C@H]1CCC2C3CCC4=CC(=O)CC[C@]4(C)C3CC[C@@]21C (stereo not given in full)"
class_name = 1

[[record]]
molecule = "CCCCCCCCCCCCCCCC(=O)OC/C=C(C)/C=C/C=C(C)/C=C/C1=C(C)CCCC1(C)C"
class_name = -1

[[record]]
molecule = "CC1=C(/C=C/C(C)=C/C=C/C(C)=C/C=C/C=C(C)/C=C/C=C(C)/C=C/C2=C(C)C(=O)CCC2(C)C)C(C)(C)CCC1=O"
class_name = -1

[[record]]
molecule = "CC(C)c1c(C(=O)c2ccccc2)c(-c2ccccc2)c(-c2ccc(F)cc2)n1CC[C@@H](O)C[C@@H](O)CC(=O)O"
class_name = -1

[[record]]
molecule = "NC(=O)c1ccc[n+]([C@@H]2O[C@H](COP(=O)([O-])OP(=O)(O)OC[C@H]3O[C@@H](n4cnc5c(N)ncnc54)[C@H](O)[C@@H]3O)[C@@H](O)[C@H]2O)c1"
class_name = -1

[[record]]
molecule = "O=C(O)C1(O)C[C@@H](O)C(O)[C@H](O)C1 (stereo not given in full)"
class_name = -1

[[record]]
molecule = "CNC(C)[C@H](O)c1ccccc1 (stereo not given in full)"
class_name = -1

[[record]]
molecule = "CC(=O)O[C@@H]1C[C@@]2(C)C(CC[C@@H]2C(C)=O)C2CCC3=CC(=O)CC[C@]3(C)C21 (stereo not given in full)"
class_name = -1

[[record]]
molecule = "CN[C@@H](C)[C@@H](O)c1ccccc1"
class_name = -1

[[record]]
molecule = "CC(N)CCCC(C)(C)O (stereo not given)"
class_name = -1

[[record]]
molecule = "CC(NCCc1ccc(O)cc1)C(O)c1ccc(O)cc1 (stereo not given)"
class_name = -1

[[record]]
molecule = "CC1=C(/C=C/C(C)=C/C=C/C(C)=C/C=C/C=C(C)/C=C/C=C(C)/C=C/C(=O)[C@]2(C)C[C@@H](O)CC2(C)C)C(C)(C)C[C@H](O)C1"
class_name = -1

[[record]]
molecule = "CCCCCCCCNC(C)C(O)c1ccc(SC(C)C)cc1 (stereo not given)"
class_name = 1

[[record]]
molecule = "COC1=C(OC)C(=O)C(C/C=C(\\C)CC/C=C(\\C)CC/C=C(\\C)CC/C=C(/C)CC/C=C(\\C)CC/C=C(\\C)CC/C=C(\\C)CC/C=C(\\C)CC/C=C(\\C)CCC=C(C)C)=C(C)C1=O"
class_name = -1

[[record]]
molecule = "CC(C)(O)[C@@H]1[C@H]2OC(=O)[C@@H]1[C@]1(O)C[C@H]3O[C@]34C(=O)O[C@H]2[C@]14C"
class_name = -1

[[record]]
molecule = "CC(=O)[C@H]1CCC2C3CCC4=CC(=O)CC[C@]4(C)C3CC[C@@]21C (stereo not given in full)"
class_name = 1

